- System: polypeptide having β-fructofuranosidase activity
- procedure_summary: Action of the polypeptide on saccharide substrates (release of fructose, TLC)
- Format: biochemical, Bacillus sp. V230
- run_parameters: 2 w/v % substrate, 2 units/g substrate of polypeptide of Example 2-1, 40° C., pH 5.5, 24 hours
property_label: action on substrate to release fructose

compound="OC[C@H]1O[C@H](OC[C@H]2O[C@H](OC[C@H]3O[C@H](O[C@]4(CO)O[C@H](CO)[C@@H](O)[C@@H]4O)[C@H](O)[C@@H](O)[C@@H]3O)[C@H](O)[C@@H](O)[C@H]2O)[C@H](O)[C@@H](O)[C@H]1O [stachyose]" measured_value="acted on"
compound="OC[C@H]1O[C@@](CO)(O[C@H]2O[C@H](CO)[C@@H](O[C@H]3O[C@H](CO)[C@@H](O)[C@H](O)[C@H]3O)[C@H](O)[C@H]2O)[C@@H](O)[C@@H]1O [erlose]" measured_value="acted on"
